Ref: the Human Domainome abundance scans (Beltran et al. 2025)

B1: REST corepressor 3, residues 87 to 134; numbered along this chain, Q9P2K3 (parent)
chain: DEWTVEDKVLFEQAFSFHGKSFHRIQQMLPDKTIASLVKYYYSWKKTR

- Variants of: B1
- testProtocol: abundance fitness (aPCA) (normalised: wild type 0, dead -1); higher = more abundant; growth selection in yeast, the domain comes from the species named
- conditionsUsed: Homo sapiens
readoutName: abundance fitness
The answer should be a number; do not append a unit.

Examples from the recorded data:
Prompt line: Name the reported abundance fitness value associated with the variant DEWTVEDKVLFEQAFSFHGKSFHRIQQMLPDCTIASLVKYYYSWKKTR
Response line: -0.816

Prompt line: Name the reported abundance fitness value associated with the variant DEWTVEDKVLFEQSFSFHGKSFHRIQQMLPDKTIASLVKYYYSWKKTR
Response line: -0.993

Prompt line: Name the reported abundance fitness value associated with the variant DEWTVEDKVLFEQAFGFHGKSFHRIQQMLPDKTIASLVKYYYSWKKTR
Response line: -0.081

Kindly review the next variant as well.
Prompt line: Name the reported abundance fitness value associated with the variant DEWTVEDKVTFEQAFSFHGKSFHRIQQMLPDKTIASLVKYYYSWKKTR
Response line: -0.723
